The reported numbers originate from the nanobody polyreactivity screen of Harvey et al. (2022).

- Test Method Notes: yeast display, Sf9 membrane polyspecificity reagent, FACS + sequencing; frameworks hold sequencing errors
Measured Property: polyreactivity (PSR sort gate)

Reference set, count: 8
QVQLVESGGGLVQAGGSLRLSCAASGSIFGRYAMGWYRQAPGKERELVAAIDGGGSTNYADSVKGRFTISRDNAKNTVYVQMNSLKPEDTAVYYCATEAKAYRYYYRTRHYYYWGQGTQVTVSS; low polyreactivity
QVQLVESGGGLVQAGGSLRLSCAASGRIFTIYSMGWYRQAPGKERELVATISKSGGITYYADSVKGRFTISRDNAKNTVYLQMNSLKPEDTAVYYCAAAWYYSSRGFHATWGHDYWGQGTQVTVSS; low polyreactivity
QVQLVESGGGLVQAGGSLRLSCAASGFTFRRYAMGGYRQAPGKERELVAAISANGGSTYYADSVKGRFTISRDNAKNTVYLQMNSLKPEDTAVYYCNARKYTQSIHYDYWGQGTQVTVSS; high polyreactivity
QVQLVESGGGLVQAGGTLRLSCAASGSIFRRKVMVWYRQAPGKERELVAAMSWSGDRTYYADSVKGRFTISRDNAKNTVYLQMNSLKPEDTAVYYCAAANASPRRYGQYDDWGQGTQVTVSS; high polyreactivity
QVQLVESGGGLVQAGGSLRLSCAASGLTFYRYAMGWYRQAPGKERELVAAIRSNVVTTYYADSVKGRFTISRDNAKNTVYLQMNSLKPEDTAVYYCNAVSYSFPIHRVRPTWYDYWGQGTQVTVSS; high polyreactivity
QVQLVESGGGLVQAGGSLRLSCAASGRTFLIYAMGWYRQAPGKERELVAGITRGSTTYADSVKGRFTISRDNAKNTVYLQMNSLKPEDTAVYYCAARNYSVATYGEYDDWGQGTQVTVSS; high polyreactivity
QVHLVESGGVLVQAGGSLRLSCAASGSPFTKYAMGWYRQAPGKERELVAAFTGGGGSTYYADSVKGRFTISRDNAKNTVYLQLNSLKPEDSAVYYCAAKVALSRFRQWSYDYWGQGTQVTVSS; low polyreactivity
QVQLVESGGGLVQAGGSLRLSCAASGLIFGYYAMGWYRQAPGKESELVDAFSFSGGSTYYADSVKGRFTISRDNAKNTVYLQMNSLKPEDTAVYYCAADLDGSSEYEYWGQCTQVTVSS; low polyreactivity

Item: QVQLVESGGGLVQAGGSLRLSCAASGFTFPYNAMGWYRQAPGKERELVAAISSTGGITYYADSVKGRFTISRDNEKNTVYLQMNSLKPEDTAVYYCNAGYPDYDWTWWHISYDYWGQGTQVTVSS | polyreactivity (PSR sort gate): low polyreactivity

Recorded result, QVQLVESGGGLVQAGGSLRLSCAASGSIFGYNAMGWYRQAPGKERELVAAISRSGGRTYYADSVKGRFTISRDNAKNTVYLQMNSLKPEDTAVYDCAAPVWRYYRGKTFDYWGQGTQVTVSS , polyreactivity (PSR sort gate): high polyreactivity

Reported polyreactivity (PSR sort gate) for QVQLVESGGGLVQAGGSLRLSCASSGRIFDSNTMGWYRQAPGKERELVAAINWSDGSTYYADSVKGRFTISRDNAKYTVFLQMNSLKPEDTAVYYCNAGARRYLYDYWVQGTQVTVSS was low polyreactivity

Input QVQLVESGGGLVQAGGSLRLSCAASGLTFHRYAMGWYRQAPGKERELVAAISRSGVTTRYADSVKGRFTISRDNAKNTVYLQMNSLKPEDTAVYYCAAVYRVRKITYDYWGQGTQVTVSS . Output polyreactivity (PSR sort gate): high polyreactivity

Record QVQLVETGGGLVQAGGSLRLSCAASGRTLWSYVMGWYIQAPGKERELVAAITSGGTTYYADSVKGRFTISRDNAKNTFYFQMNSLKPEDTAVYSCNVYTKFVYAYDYWGQGTQVTVSS , field polyreactivity (PSR sort gate): high polyreactivity

Sample QVQLVESGGGLVQAGGSLRLSCAASGNIFDGNSMGWYRQAPGKERELVAAITGRGGGTYYADSVKGRFTISRDNAKNTVYLQMNSLKPEDTAVYYCAAPWVVRRTAYDYWGQGTQVTVSS ; polyreactivity (PSR sort gate) observed: high polyreactivity

Reported polyreactivity (PSR sort gate) of QVQLVESGGGLVQAGGSLRLSCAASGITVLKYVMGWYRQAPGKEREFVAAITARGGTTYYADSVKGRFTISRDNAKNTVYLQMNSLKQEDTAVYYCAARSYYSGLAYYYWGQGTQVTVSS : high polyreactivity

polyreactivity (PSR sort gate) in this record for QVQLEESGGGLVQAGGSLRLSCAASGLTFRSYAMGWYRQAPGTEREFVAAITGSGDTTYYAVSVKGRFTISRDNALNTVYLQMNSLNPEETAGYYCNADRDYLWITLYEYWGQGTQLTVSS : high polyreactivity

====

- Test Method Notes: yeast display, Sf9 membrane polyspecificity reagent, FACS + sequencing; frameworks hold sequencing errors
Measured Property: polyreactivity (PSR sort gate)

Worked examples follow.
QVQLVESGGGLVQAGGSLRLSCAASGFIFYQYAMGWYRQAPGKERELVAAISKSGGNTYYADSVKGRFTISRDNAKNTVYLQMNSLKPEDTAVYYCAADRGQRGMYYWGQGSQVTVSS; high polyreactivity
QVQLVESGGGLVQAGGSLRLSCGASGSTSVRYAMGWYRQAPGKERELVAAISSSGGSTYYAVSVKGRFTISRDTAKNTVYLQMNSLKPEDTAVYYCNAVPYTTFDWGQGTQVTVSS; low polyreactivity
QVQLVESGGGLVQAGGSLRLSCAASGRTSTIYTMGWYRQAPGKEREFVASISAGAGTYYADSVKGRFTISRDNAKNTVYLQMNSLKPEDTAVYYCSASVYWRSTRRHQMDYWGQGTQVTVSS; high polyreactivity
QVQLVESGGGLVQAGGSLRLSCAASGLILSSNAMGWYRQAPGKERELVATISWSGDSTYYADSVKGRFTISRDNAKNTVYLQMNSLKPEDTAVYDCNADHFQWGAGYDYWGQGTQVTVSS; low polyreactivity
QFQLVESLGGLDQAGGSLRLSFAASGLIILAYAMVWYRQAPGKERELVAAISRNRGSTYYADSVKGRLTISRDNAKNTVYLQMNSLKPEVTEVYYCNNVSRSSVYLDYYYWGQGTQVTVSS; high polyreactivity

Kindly review the next sequence as well.
Reported polyreactivity (PSR sort gate) ( QVQLVESGGGLVQAGGSLRLSCAASGRNFKPNVMGWYRQAPGKERELVAAISWSGGASTYYADSVKGRFTISRDNAKNTVYLQMNSLKREDTAVYYCNAAKRNRYDYWGQGTQVTVSS ) = low polyreactivity

====

- Test Method Notes: yeast display, Sf9 membrane polyspecificity reagent, FACS + sequencing; frameworks hold sequencing errors
Measured Property: polyreactivity (PSR sort gate)

Solved cases below.
QVQLEDSGGGLFQAGGSLRLSCAASGNTFPVSYTMGWYIQAHRKEREFVAAISKDGGRTYYADSVKGRFTISRDNAKNTVYLQMNSLKPEDTAVYYCAARYSSSRGLSSEYWGQCTQVTVSS; high polyreactivity
QVQHVESGGGLVQAGGSLRLSCAASGSTFYIYAMGWYRQAPGKERELVATITDGGSTNFADSVKGRFTISRDNAKNTVYLQMNSLKPEDTAVYYCNANVWTGYDYWGLGTQVTVSS; low polyreactivity
QVQIVESGVGLVQAGGSLSLSCAASGIIIHSNAMGWYRQAPGKERELVAAITSSGGSKYYADSVKGRFTISRDNAKNTVYLQMNSLKPVDTAVYYCAVVTILVYRYVVPYDYWGHGTQVTVSS; high polyreactivity
QVQLVESGGGLVQAGGSLRLSCAASGIIFPYYAMGWYREAPGIERELVAGLDSSGSSTNYADSVKGRFTISRDTAKTTVYLQITSLQPEDTAVYYCAKVTSSGDAVLTQIPYGYDYWGQGTQVTVSS; low polyreactivity

Reported polyreactivity (PSR sort gate) of QVQLVESGGGLLQAGASLRLSCAASGRTIYRYAMGRYRQAPGKERELVAAITRRGVNTYYADSVKGRFTISRDNAKNTVYLQMYSLKPVDTAVFYCNAAYSSRYDYCGQGTQVTVSS : high polyreactivity

So, QVQLVESGGGLVQAGGSLRLSCAASGSIFWPNAMGWYRQAPGKERELVAAISWGTGSTYYADSVKGRFTISRDNAKNTVYLQMNSLKPEDTAVYYCAADGAYLDPYYDYWGQGTQVTVLS ? Its polyreactivity (PSR sort gate) was low polyreactivity

====

- Test Method Notes: yeast display, Sf9 membrane polyspecificity reagent, FACS + sequencing; frameworks hold sequencing errors
Measured Property: polyreactivity (PSR sort gate)

Use the examples below as a reference point.
QVQLVESGGGLVQAGGSLRLSCAASGRIFWDNAMGWYRQAPGKERELVAAISGSGGNTYYADSVKGRFTISRDNAKNTVYLQMNSLKPEDTAVYYCNAYGHYTKRYRYGGWFDYWGQGTQVTVSS; low polyreactivity
QVQLVESGGGLVQAGGSLRLSCAASGNTFISYAMGWYRQAPGKERELVAAITWSGGSTYYADSVKGRFTISRDNAKNTVYLQMNSLKPEDTAVYYCAKFTHNYYYWGQGTQVTVSS; high polyreactivity
QVQLVESGGGLVQAGGSLRLSGAASGRILRRYTMGWSRQAPGKERELVAAISSGGNTYYADSVKGRFTISRDNATNTVYLQMNSLKPEDTAGYYCAARVRRYWEYDYWGQGTQVTVSS; low polyreactivity
QVQLVESGGGLVQAGGSLRLSCAASGRIFSPYAMGWYRQAPGKERELVASIRGSGGSTYYADSVKGPFTISRDNAKNTVYLQMNRLKPEDTAVYYCNARNNYRFLSFGYWGQGTQVTVSS; high polyreactivity
QVQLVESVGGLVQAGGSLRLSCAASGFIFFFYAMGWYRQAPGKERELVAAISDGVSTYYADSVKGRFTISSDNAKNTVYLQMNSLKPEDTAVYYCAVSRGDEPEFDYWGQGTQVTVSS; low polyreactivity

The sequence identified as QVQLVESGGGLVQAGGSLRLSCAASGRTFYRNAMGWYRQAPGKERELVATLNSGGSTHYADSVKGRFTISRDNAKNTVYLQMNSLKPEDTAVYYCAARSPSYRGSLSYYWGQGTQVTVSS registered its polyreactivity (PSR sort gate) at high polyreactivity

// QVQLVESGGGLVQAGGSLRLSCAASGRIFYTNGMGWYRQAPGKERELVAAITYSGGNTFYADSVKGRFTISRDNSKNTVYLQMNSLKPEDTAVYYCAATFTYLGYWYDYRGQGTQVTVSS : polyreactivity (PSR sort gate) value = low polyreactivity

For this sequence ( QVQLVESGGGLVQAGGSLRLSCAASGFTFGRYAMGWYRQAPGKERELVASITSGGSTYYADSVKGRFTISRDNAKNTVYLQMNSLKPEDTAVYYCAAEWRWWGGYYYWGQGTQVTVSS ), measured polyreactivity (PSR sort gate) is high polyreactivity
